Data credit: PubChem BioAssay (NCATS)

# protocol details: Primary qHTS for inhibitors of nuclear receptor binding SET domain protein 2 (NSD2) in an RCH-ACV wild type WT cells (2C) (AID 1645877); note: nearly all actives have a fitted effect of over 70% in size
# measurement conditions: RCH-ACV (leukaemia line) NSD2 WT (2C) viability, CellTiter-Glo, 72 h; series mostly up to 44.9 µM
Inconclusive results are not listed. The source made the active and inactive calls. Calls come from the whole dose curve; as a rule, active = well fitted inhibition curve with a large enough effect; inconclusive = small, poorly fitted or top-dose-only effect; inactive = no such curve, though single readings can be large or run the other way.
The reply should be one of these categories: YES (active), NO (inactive)

Solved entries (count: 4):
O=C1OC(COc2ccccc2[N+](=O)[O-])CC1Cc1ccccc1 (stereo not given)    NO
CCc1cc2c(c(OCC(F)(F)F)c(C(=O)NC3CCN(C(=O)CO)CC3)n2C)c(=O)n1CC(=O)c1ccccc1    NO
Cc1ccc(-n2c(C)cc(-c3nnc4n3CCCCC4)c2C)cc1    YES
Cc1nc(NC(=O)N2CCC[C@H]2C(N)=O)sc1-c1csc(C(C)(C)C)n1    YES

I would be grateful if you could indicate the recorded call for `O=C1NC(=O)[C@@H](c2cn3c4c(cccc24)CCC3)[C@@H]1c1c[nH]c2ccccc12` .
YES

I would be grateful if you could indicate the recorded call for `Clc1cccc(-c2ccc(-c3nnc(CCCc4ccc5cccnc5n4)o3)cc2)c1` .
NO

I would be grateful if you could indicate the recorded call for `O=c1cc(N2CCOCC2)oc2c(-c3ccc4c(c3)OCCO4)csc12` .
YES

I would be grateful if you could indicate the recorded call for `O=C(O)c1ccccc1-c1ccc(/C=c2\sc3nc4cc(Br)cnc4n3c2=O)o1` .
NO

I would be grateful if you could indicate the recorded call for `COc1ccc(COc2ccc(Cc3cnc(N)nc3N)cc2OC)cc1` .
NO

I would be grateful if you could indicate the recorded call for `Cc1ccc(-c2ccc(C)cn2)nc1` .
NO

I would be grateful if you could indicate the recorded call for `C/C(=N\NC(=S)N1CCC1)c1ccccn1` .
YES

I would be grateful if you could indicate the recorded call for `COc1cc2nccc(Oc3ccc(NC(=O)c4cn(C(C)C)c(=O)n(-c5ccc(F)cc5)c4=O)cc3F)c2cc1OC` .
NO

I would be grateful if you could indicate the recorded call for `CN1CCN(c2ccc(Nc3ncc4cc(C#N)c(=O)n(C5CCCC5)c4n3)cc2)CC1` .
YES

I would be grateful if you could indicate the recorded call for `COC(=O)c1ccc([C@H]2c3[nH]c4ccccc4c3C[C@H](C(=O)OC)N2C(=O)CCl)cc1` .
YES

I would be grateful if you could indicate the recorded call for `O=c1[nH]nc2c3c(cccc13)NC(CN1Cc3ccccc3C1)=N2` .
YES

I would be grateful if you could indicate the recorded call for `CNc1nc(-c2ccc3c(N)n[nH]c3c2)cc(N2C[C@@H](C(=O)NC3CCCCC3)CC[C@H]2C)n1` .
YES

###

# protocol details: AP1 Signaling Pathway (AID 357);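 note: ME-180 reporter cells stimulated with EGF at its EC50 level; % is set by controls: 0 for no effect and ±100 for the full control effect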
# measurement conditions: ME-180 (cervical carcinoma) AP-1-bla reporter, EGF-induced, beta-lactamase ratio, 5 h; at 7.69 µM (top of the series) unless noted
# Experimental: NCGC Assay Overview: Activator protein-1 (AP-1), a transcription factor, plays an important role in tumor genesis by regulating genes involved in cell proliferation, differentiation, apoptosis, and angiogenesis. AP-1 activity is induced by a complex network of signaling pathways that involves extracellular signals, such as growth factors. […] Library compounds were measured for their ability to modulate positively or negatively the action of EC50 EGF on reporter gene activity. […]
Inconclusive results are not listed. Calls of active or inactive are those of the source. The call rests on the fitted dose curve; in most records, active means well fitted curve in either direction with a large enough effect (not every such curve was filed as active); inconclusive means small, poorly fitted or top-dose-only effect, or another doubt; inactive means flat fitted curve, though single readings scatter.
The reply should be one of these categories: yes (1) for active, no (0) for inactive

N#CCCn1c(=O)c(-c2ccc(Cl)cc2)nc2cnc(Oc3ccccc3)nc21    no (0)
CS(=O)(=O)N1CCC2(CC1)CN(c1cccc(-c3ccccc3)c1)C2    no (0)
O=C(Oc1ccccc1)N1CCC2(CCCN(c3ccccc3)C2)CC1    no (0)
Cc1noc(C)c1-c1cc(NC2CCNCC2)ncn1    no (0)
CN(C)c1ncc2nc(-c3cc(F)cc(F)c3)c(=O)n(CCC#N)c2n1    no (0)

I would be grateful if you could indicate the recorded call for `COc1ccc(CNc2ncnc3ccc(-c4ccccc4OC)cc23)c(OC)c1` .
no (0)

I would be grateful if you could indicate the recorded call for `COCCn1c(=O)c(C)nc2cnc(N3CCN(C)CC3)nc21` .
no (0)

I would be grateful if you could indicate the recorded call for `Cc1cnc(CNc2ncncc2-c2cccc(C#N)c2)cn1` .
no (0)

I would be grateful if you could indicate the recorded call for `COCC(=O)N1CCC2(CC1)CN(C(=O)Nc1cccc(F)c1)C2` .
no (0)

I would be grateful if you could indicate the recorded call for `CC(=O)N1CCC2(CC1)CCN(C(=O)Nc1cccc(F)c1)CC2` .
no (0)

I would be grateful if you could indicate the recorded call for `COc1ncc2nc(CCc3ccccc3)c(=O)n(C3CC3)c2n1` .
no (0)

I would be grateful if you could indicate the recorded call for `Cc1noc(C)c1C(=O)N1CCC[C@@]2(CCN(C(=O)NC(C)C)C2)C1` .
no (0)

###

# protocol details: NFAT Signaling Pathway (AID 444);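 note: carbachol stimulus at about its EC50 of 1 µM final; % is set by controls: 0 for no effect and ±100 for the full control effect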
# measurement conditions: Jurkat NFAT-bla M1, carbachol, beta-lactamase ratio, 5 h; at 7.69 µM (top of the series) unless noted
Inconclusive results are not listed. Calls of active or inactive are those of the source. The call rests on the fitted dose curve; in most records, active means well fitted curve in either direction with a large enough effect (not every such curve was filed as active); inconclusive means small, poorly fitted or top-dose-only effect, or another doubt; inactive means flat fitted curve, though single readings scatter.
measured endpoint: activity change, negative = inhibition

Here are 5 compounds together with their reported answers.
COc1ccc(-n2c(=O)cnc3cnc(Oc4ccccc4)nc32)cc1    2.58% (inactive)
COCCNc1cc(-c2c(C)noc2C)ncn1    3.73% (inactive)
CN(Cc1ccco1)c1ncnc2ccc(-c3ccoc3)cc12    -26.3% (inactive)
O=C(c1ccncc1)N1CCC2(CC1)CN(C(c1ccccc1)c1ccccc1)C2    16.7% (inactive)
COc1cccc(Nc2ncc3nc(-c4ccccc4)c(=O)n(C[C@H]4CCCO4)c3n2)c1    -8.66% (inactive)

Output activity change, negative = inhibition of `CC(C)NC(=O)N1CCCC2(CCN(S(=O)(=O)c3ccccc3)CC2)C1`
-5.06% (inactive)

Output activity change, negative = inhibition of `CNc1ncnc2ccc(-c3ccccc3CN(C)C)cc12`
-2.46% (inactive)

Output activity change, negative = inhibition of `CN1CCN(c2ncncc2-c2ccc(C(=O)N(C)C)cc2)CC1`
4.17% (inactive)

Output activity change, negative = inhibition of `COc1cccc(Cn2c(=O)cnc3cnc(Oc4ccccc4)nc32)c1`
-0.253% (inactive)

Output activity change, negative = inhibition of `O=C(c1ccncc1)N1CCC[C@@]2(CCN(c3ncccn3)C2)C1`
20.3% (inactive)

Output activity change, negative = inhibition of `CCNc1ncc2nc(-c3ccc(F)cc3)c(=O)n(CCOC)c2n1`
-3.34% (inactive)

Output activity change, negative = inhibition of `O=C(Nc1ccccc1)N1CC2(CCN(C(=O)c3ccco3)CC2)C1`
3.9% (inactive)

Output activity change, negative = inhibition of `COc1ccc(-c2nc3cnc(N4CCNCC4)nc3n(Cc3cccs3)c2=O)cc1`
182% [activator] (active)

Output activity change, negative = inhibition of `COc1cccc(-c2ccc3ncnc(NCc4cccs4)c3c2)c1`
23.9% (inactive)

Output activity change, negative = inhibition of `Cc1ccccc1-c1cc(NCc2ccccc2)ncn1`
-13.3% (inactive)

Output activity change, negative = inhibition of `COc1ccccc1CNc1ccnc(-c2ccoc2)n1`
-21% (inactive)

Output activity change, negative = inhibition of `CCNc1ncc2nc(-c3cn(C)c4ccccc34)c(=O)n(-c3ccc(OC)cc3)c2n1`
-8.46% (inactive)

Output activity change, negative = inhibition of `Cc1nc2cnc(N3CCN(C)CC3)nc2n(-c2ccccc2)c1=O`
-6.35% (inactive)

Output activity change, negative = inhibition of `O=c1c(-c2cc(F)cc(F)c2)nc2cncnc2n1Cc1ccccc1`
-18% (inactive)

Output activity change, negative = inhibition of `O=C(c1ccco1)N1CCC[C@@]2(CCN(Cc3nccs3)C2)C1`
-14% (inactive)

Output activity change, negative = inhibition of `COc1cccc(-c2ccc3ncnc(N(C)Cc4ccco4)c3c2)c1`
-8.47% (inactive)

###

# target desc: Glutathione peroxidase 1 (Homo sapiens) (UniProt P07203)
# Sequence (P07203 whole entry, looked up): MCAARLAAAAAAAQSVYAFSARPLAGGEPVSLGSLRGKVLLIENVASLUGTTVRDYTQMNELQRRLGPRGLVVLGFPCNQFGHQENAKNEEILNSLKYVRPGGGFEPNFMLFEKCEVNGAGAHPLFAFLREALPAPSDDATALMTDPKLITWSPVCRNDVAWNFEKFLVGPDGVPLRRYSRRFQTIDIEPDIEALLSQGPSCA
# protocol details: Primary qHTS Assay for Inhibitors of Recombinant Selenoprotein Glutathione Peroxidase 1 (GPX1) (AID 1845191); note: nearly all actives have a fitted effect of over 65% in size
# measurement conditions: recombinant GPX1, GR-coupled NADPH fluorescence, 15 min; series mostly up to 48.8 µM
Inconclusive results are not listed. Calls of active or inactive are those of the source. The call rests on the fitted dose curve; in most records, active means well fitted inhibition curve with a large enough effect; inconclusive means small, poorly fitted or top-dose-only effect; inactive means flat fitted curve, though single readings scatter.
The reply should be one of these categories: active, inactive

Solved entries (count: 4):
COC1CCC(N2C(=O)CNc3ncc(-c4ccc(C(C)(C)O)nc4)nc32)CC1 (configuration not stated)    active
C[C@@H]1Cc2c([nH]c3ccccc23)[C@@H](c2c(F)cc(/C=C/C(=O)O)cc2F)N1CC(C)(C)F    inactive
CC1(N)CCN(c2cccnc2NC(=O)c2nc(-c3ncccc3C(F)(F)F)cnc2N)CC1    inactive
Cn1cc(/C=C2\C(=O)Nc3cccnc32)c2ccccc21    inactive

I would be grateful if you could indicate the recorded call for `NS(=O)(=O)Oc1ccc2c3c(c(=O)oc2c1)CCCCC3` .
active

I would be grateful if you could indicate the recorded call for `COc1cc([C@@H]2c3cc4c(cc3[C@@H](O[C@@H]3O[C@@H]5CO[C@@H](c6cccs6)O[C@H]5[C@H](O)[C@H]3O)[C@H]3COC(=O)[C@H]23)OCO4)cc(OC)c1O` .
inactive

I would be grateful if you could indicate the recorded call for `CC(C)(O)[C@H]1CC[C@@](C)([C@H]2[C@@H](O)C[C@@]3(C)[C@@H]4C[C@H](O[C@@H]5O[C@H](CO)[C@@H](O)[C@H](O)[C@H]5O)[C@H]5C(C)(C)[C@@H](O[C@@H]6OC[C@@H](O)[C@H](O)[C@H]6O)CC[C@@]56C[C@@]46CC[C@]23C)O1` .
inactive
